systemName: T1, B-cat-Halo (beta-catenin HaloTag NanoBRET construct expressed in HEK293 cells) (UniProt P35222 1-781)
T1 sequence (looked up): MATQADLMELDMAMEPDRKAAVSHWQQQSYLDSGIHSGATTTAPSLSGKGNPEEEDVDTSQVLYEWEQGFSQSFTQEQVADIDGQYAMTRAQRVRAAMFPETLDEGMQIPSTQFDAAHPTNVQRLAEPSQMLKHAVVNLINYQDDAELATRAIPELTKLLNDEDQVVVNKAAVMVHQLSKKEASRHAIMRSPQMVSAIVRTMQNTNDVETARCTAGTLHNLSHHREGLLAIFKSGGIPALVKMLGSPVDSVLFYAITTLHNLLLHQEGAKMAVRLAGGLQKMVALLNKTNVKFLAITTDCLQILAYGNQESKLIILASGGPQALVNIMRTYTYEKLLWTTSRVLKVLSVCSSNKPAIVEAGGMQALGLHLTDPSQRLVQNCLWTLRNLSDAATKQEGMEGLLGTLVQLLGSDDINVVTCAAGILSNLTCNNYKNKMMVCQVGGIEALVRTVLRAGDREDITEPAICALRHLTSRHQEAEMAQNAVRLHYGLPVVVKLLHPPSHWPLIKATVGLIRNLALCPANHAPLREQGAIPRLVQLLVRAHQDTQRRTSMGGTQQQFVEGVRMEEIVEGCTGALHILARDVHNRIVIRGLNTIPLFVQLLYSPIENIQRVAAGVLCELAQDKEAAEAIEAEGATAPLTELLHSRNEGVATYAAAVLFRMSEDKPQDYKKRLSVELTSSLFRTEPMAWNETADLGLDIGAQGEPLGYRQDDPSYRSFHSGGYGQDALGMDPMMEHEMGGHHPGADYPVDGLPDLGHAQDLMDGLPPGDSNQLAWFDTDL
procedureSummary: cell-based or functional assay
Starred links: 1 amine or outer side, 2 acyl side, 3 side chain; linkers in the order of their positions; H or OH if unused. Positions of bridges follow the written chain, without caps; N, C: chain ends. Non-standard residues stand in square brackets, D forms with d. Primed or numbered codes have the meaning given here. B5(15) = 2-amino-2-(pent-4-en-1-yl)hept-6-enoic acid (2,2-bis(4-pentenyl)glycine), stitching residue bearing two staples, C=CCCCC(CCCC=C)(N[*:1])C(=O)[*:2]; B5(23) = 2-amino-2-(pent-4-en-1-yl)hept-6-enoic acid (2,2-bis(4-pentenyl)glycine), stitching residue, C=CCCCC(CCCC=C)(N[*:1])C(=O)[*:2]; Bta = N[C@@H](Cc1csc2ccccc12)C(=O)O; αAllylPro = C=CC[C@@]1(C(=O)O)CCCN1; S8 = C=CCCCCCC[C@](C)(N)C(=O)O; hSer = N[C@@H](CCO)C(=O)O
Parameter: NanoBRET Abs IC50. Scope: all listed entries.

binder="Ac-[αAllylPro]D[hSer][B5(15)]DEAAF[hSer][S8]F[Bta]Q-NH2 (staple 1-4, 4-11; not fully specified; printed as Ac-PL3-Asp-Hse-B5-Asp-Glu-Ala-Ala-Phe-Hse-S8-Phe-BztA-Gln-NH2, Stapled peptide composition; Same description as I-1548; earlier eluting HPLC peak (staple isomer); also called Ac-PL3-Asp-Hse-B5-Asp-Glu-Ala-Ala-Phe-Hse-S8-Phe-BztA-Gln-NH2) [I-1547]" propertymeasured="NanoBRET Abs IC50" endpointresult="> 20 µM"
binder="Ac-[αAllylPro]DN[B5(15)]DEAAF[hSer][S8]F[Bta]Q-NH2 (staple 1-4, 4-11; not fully specified; printed as Ac-PL3-Asp-Asn-B5-Asp-Glu-Ala-Ala-Phe-Hse-S8-Phe-BztA-Gln-NH2, Stapled peptide composition; later eluting HPLC peak (staple isomer); also called Ac-PL3-Asp-Asn-B5-Asp-Glu-Ala-Ala-Phe-Hse-S8-Phe-BztA-Gln-NH2) [I-1535]" propertymeasured="NanoBRET Abs IC50" endpointresult="> 20 µM"

State its NanoBRET Abs IC50: Ac-[αAllylPro]DK[B5(23)]DEAAF[hSer][S8]F[Bta]Q-NH2 (staple 1-4, 4-11, Stapled peptide composition; also called Ac-PL3-Asp-Lys-B5-Asp-Glu-Ala-Ala-Phe-Hse-S8-Phe-BztA-Gln-NH2) [I-1554]
> 20 µM

The values you see were collected from patent US20240116985A1.
